The entries below are paired with their reported GI50.
# Target Under Test: Ba/F3-EGFR-L858R T790M cells (Homo sapiens, UniProt P00533, T790M/L858R, cells depend on it)
# Sequence (P00533 whole entry T790M/L858R): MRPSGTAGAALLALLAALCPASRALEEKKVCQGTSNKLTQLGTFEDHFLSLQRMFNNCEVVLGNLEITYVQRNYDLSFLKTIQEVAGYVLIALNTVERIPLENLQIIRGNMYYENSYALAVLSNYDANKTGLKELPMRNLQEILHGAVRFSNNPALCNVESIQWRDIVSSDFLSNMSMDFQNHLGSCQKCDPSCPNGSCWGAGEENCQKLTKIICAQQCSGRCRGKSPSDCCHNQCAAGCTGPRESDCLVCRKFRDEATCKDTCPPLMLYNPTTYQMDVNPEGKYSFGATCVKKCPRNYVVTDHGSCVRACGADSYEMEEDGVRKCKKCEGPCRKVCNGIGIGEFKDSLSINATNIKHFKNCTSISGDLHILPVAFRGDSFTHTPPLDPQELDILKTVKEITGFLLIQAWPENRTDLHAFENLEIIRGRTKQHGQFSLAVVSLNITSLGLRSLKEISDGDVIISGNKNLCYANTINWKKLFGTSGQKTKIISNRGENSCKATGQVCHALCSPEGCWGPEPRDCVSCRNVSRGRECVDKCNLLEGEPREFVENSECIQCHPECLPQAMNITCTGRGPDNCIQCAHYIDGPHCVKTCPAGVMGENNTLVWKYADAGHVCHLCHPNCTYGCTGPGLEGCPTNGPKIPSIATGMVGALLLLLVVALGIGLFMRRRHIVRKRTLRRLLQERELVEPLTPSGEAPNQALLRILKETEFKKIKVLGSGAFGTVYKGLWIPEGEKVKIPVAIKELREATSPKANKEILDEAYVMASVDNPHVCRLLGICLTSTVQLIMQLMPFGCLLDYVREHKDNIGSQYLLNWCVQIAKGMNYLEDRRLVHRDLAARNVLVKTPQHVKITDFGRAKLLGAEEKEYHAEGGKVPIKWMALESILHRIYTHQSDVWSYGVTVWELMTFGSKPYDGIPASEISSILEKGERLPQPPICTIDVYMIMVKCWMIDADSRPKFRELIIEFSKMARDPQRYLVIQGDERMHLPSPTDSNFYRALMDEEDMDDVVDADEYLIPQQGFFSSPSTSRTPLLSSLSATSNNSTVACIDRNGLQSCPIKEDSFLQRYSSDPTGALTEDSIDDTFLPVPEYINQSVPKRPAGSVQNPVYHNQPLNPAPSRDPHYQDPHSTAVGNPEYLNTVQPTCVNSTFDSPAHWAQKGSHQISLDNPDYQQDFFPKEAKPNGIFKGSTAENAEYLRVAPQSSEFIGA
# Assay Notes: Ba/F3 cell survival assay (Cell Titer-Glo), EGFR-L858R T790M
# Type: cell-based
# Condition Description: 48 h, without IL-3, 10 ng/mL EGF; read-out: BA/F3 (L858R T790M) IC50
Readout Label: GI50 (nM)

>>> print(df.to_string())
                           structure_string  reading_qualifier  recorded_result
0  C=CC(=O)N(C)CCOc1cnccc1-c1[nH]c2c(c1Nc1ccc(F)cc1)C(=O)NCC2                  =              274
1  COc1c(F)cccc1Nc1c(-c2ccncc2OCCN(C)C(=O)/C=C/CN(C)C)[nH]c2c1C(=O)NCC2                  >             1000
2  C=CC(=O)N(C)CCOc1cnccc1-c1[nH]c2c(c1Nc1cccc(Cl)c1OC)C(=O)NC(C)(C)C2                  =              276
3  C=CC(=O)N(C)CCOc1cnccc1-c1[nH]c2c(c1Nc1cccc(F)c1OC)C(=O)NCC2                  =             26.4

====

# Target Under Test: Ba/F3-EGFR-WT cells (Homo sapiens, UniProt P00533)
# Sequence (P00533 whole entry, change not shown): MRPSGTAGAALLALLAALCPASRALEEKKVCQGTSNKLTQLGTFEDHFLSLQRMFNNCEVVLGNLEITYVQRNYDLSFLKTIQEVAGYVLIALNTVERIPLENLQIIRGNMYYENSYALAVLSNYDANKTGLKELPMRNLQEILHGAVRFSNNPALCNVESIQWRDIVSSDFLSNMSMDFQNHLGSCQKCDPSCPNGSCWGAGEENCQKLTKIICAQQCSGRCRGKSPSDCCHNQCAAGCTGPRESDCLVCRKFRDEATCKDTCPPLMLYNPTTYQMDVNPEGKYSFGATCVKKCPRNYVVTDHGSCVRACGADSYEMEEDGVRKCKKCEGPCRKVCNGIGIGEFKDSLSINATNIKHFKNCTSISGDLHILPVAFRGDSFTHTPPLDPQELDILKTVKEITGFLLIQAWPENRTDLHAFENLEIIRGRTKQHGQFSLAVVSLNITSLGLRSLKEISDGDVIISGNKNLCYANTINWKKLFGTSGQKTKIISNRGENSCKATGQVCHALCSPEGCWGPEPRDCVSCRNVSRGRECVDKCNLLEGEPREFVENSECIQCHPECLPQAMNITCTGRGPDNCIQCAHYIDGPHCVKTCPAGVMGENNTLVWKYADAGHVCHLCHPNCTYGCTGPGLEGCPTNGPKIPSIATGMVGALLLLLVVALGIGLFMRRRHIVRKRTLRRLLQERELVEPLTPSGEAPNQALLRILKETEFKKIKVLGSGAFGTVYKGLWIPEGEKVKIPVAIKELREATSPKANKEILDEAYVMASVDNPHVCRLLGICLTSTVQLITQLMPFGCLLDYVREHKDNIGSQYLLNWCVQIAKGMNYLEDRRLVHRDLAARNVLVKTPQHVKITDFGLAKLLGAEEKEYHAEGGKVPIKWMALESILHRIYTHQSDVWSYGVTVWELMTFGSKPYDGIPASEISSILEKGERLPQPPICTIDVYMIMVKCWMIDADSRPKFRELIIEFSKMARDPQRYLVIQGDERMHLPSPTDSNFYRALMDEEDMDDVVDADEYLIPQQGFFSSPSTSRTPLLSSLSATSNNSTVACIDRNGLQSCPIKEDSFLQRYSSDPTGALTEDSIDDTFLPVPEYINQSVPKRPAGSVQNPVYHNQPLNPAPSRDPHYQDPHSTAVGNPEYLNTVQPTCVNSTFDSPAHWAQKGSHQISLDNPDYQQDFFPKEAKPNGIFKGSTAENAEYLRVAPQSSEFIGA
# Assay Notes: Ba/F3 cell survival assay (Cell Titer-Glo), WT EGFR
# Assay type: cell-based
# Condition Description: 48 h, without IL-3, 10 ng/mL EGF; read-out: BA/F3 (wild type) IC50
Listing of entries alongside the reported GI50.
Readout Label: GI50

In [3]: df
Out[3]:
                                   molecule                         target_under_test  recorded_result
0  COc1c(Cl)cccc1Nc1c(-c2ccncc2OCCN(C)C(=O)/C=C/CN(C)C)[nH]c2c1C(=O)NC1(CCC1)C2 [Example 10]  Ba/F3-EGFR-WT cells (Homo sapiens, UniProt P00533)          1660 nM
1  COc1c(F)cccc1Nc1c(-c2ccncc2OCCN(C)C(=O)/C=C/CN(C)C)[nH]c2c1C(=O)NCC2 [Example 8]  Ba/F3-EGFR-WT cells (Homo sapiens, UniProt P00533)          4700 nM
2  C=CC(=O)N(C)CCOc1cnccc1-c1[nH]c2c(c1Nc1ccc(F)cc1)C(=O)NCC2 [Example 7]  Ba/F3-EGFR-WT cells (Homo sapiens, UniProt P00533)           366 nM
3  C=CC(=O)NCCOc1cnccc1-c1[nH]c2c(c1Nc1cccc(F)c1C)C(=O)NCC2 [Example 2]  Ba/F3-EGFR-WT cells (Homo sapiens, UniProt P00533)           907 nM
4  C=CC(=O)N(C)CCOc1cnccc1-c1[nH]c2c(c1Nc1cccc(F)c1OC)C(=O)NCC2 [Example 6]  Ba/F3-EGFR-WT cells (Homo sapiens, UniProt P00533)           109 nM
5  C=CC(=O)N(C)CCOc1cnccc1-c1[nH]c2c(c1Nc1cccc(Cl)c1OC)C(=O)NC1(CCC1)C2 [Example 11]  Ba/F3-EGFR-WT cells (Homo sapiens, UniProt P00533)           309 nM
6  C=CC(=O)N(C)CCOc1cnccc1-c1[nH]c2c(c1Nc1cccc(Cl)c1OC)C(=O)NCC2 [Example 5]  Ba/F3-EGFR-WT cells (Homo sapiens, UniProt P00533)            68 nM
